- condition-info: 4 h, 10 μM
endpoint-label: Prodrug (%) remaining, Rat Plasma
Form entry: value (%) — number only.

// solved cases for Prodrug (%) remaining, Rat Plasma follow
compound	readout-unit	Prodrug (%) remaining, Rat Plasma
CCCC(CC)CC(=O)OC1=C[C@@H]2N(C)CC[C@]2(c2ccc(OC)c(OC)c2)CC1 (stereo partly shown) [Compound 398]	%	0.0
CCCCCC(C)C(=O)OC1=C[C@@H]2N(C)CC[C@]2(c2ccc(OC)c(OC)c2)CC1 (stereo partly shown) [Compound 400]	%	0.0
COc1ccc([C@@]23CCC(OC(=O)CC(C)(C)C)=C[C@@H]2N(C)CC3)cc1OC [Compound 431]	%	0.2

Measured Prodrug (%) remaining, Rat Plasma, CCCC(C)C(=O)OC1=C[C@@H]2N(C)CC[C@]2(c2ccc(OC)c(OC)c2)CC1 (stereo partly shown) [Compound 402] : 0.0

Just for reference, patent US20250051277A1 is where these values come from.
